- Test system: TK-10
- ASSAY INFO: NCI tumour cell line growth inhibition, 48 h
Activity calls are given as the source filed them. Cut-off read from the data, not from the text of the source: active = GI50 up to about 1.1 µM and inactive = higher.
METRIC NAME: GI50

COc1cc(/C=C2\CCC(C)C3=C(c4cc(OC)c(OC)c(OC)c4)C(C#N)=C(N)OC32)cc(OC)c1OC (centres undefined)    4.21 µM (inactive)

Recorded GI50 of O=C(CSc1nc2ccc([N+](=O)[O-])cc2s1)c1ccc2ccccc2c1 , please.
54.2 µM (inactive)

Another compound to look at: CCCCC(=O)Nc1ccc2cc(C(=O)OC)c(ON3C(=O)c4ccccc4C3=O)nc2n1
14.6 µM (inactive)

Another compound to look at: COC(=O)C1=C(C(=O)OC)SC(=C(/N=N/c2ccccc2)c2ccccc2)S1
> 100 µM (inactive)

Another compound to look at: Nc1nc(Cl)c(N)c(NCC2(CO)CCC(CCc3ccccc3)C2)n1 (centres undefined)
21.3 µM (inactive)

Another compound to look at: C=CCN(CC=C)CC(C(C)=O)C(c1ccccc1)c1c(O)c2ccccc2oc1=O (centres undefined)
> 100 µM (inactive)

Another compound to look at: CC(=O)c1sc2n(C)c(=O)c3ccccc3[n+]2c1C
> 100 µM (inactive)

Another compound to look at: COC(=O)[C@@H](N1C(=O)c2ccccc2C1=O)C1(C)CC(Cl)=NO1 (some centres undefined)
31.1 µM (inactive)

Another compound to look at: CN1CCN([C@H]2C[C@H]3[C@@H]4CC=C5C[C@@H](O)CC[C@]5(C)[C@H]4CC[C@]3(C)[C@H]2O)CC1
> 100 µM (inactive)

---

Entries annotated with measured GI50
- Test system: K562
- ASSAY INFO: NCI tumour cell line growth inhibition, 48 h
Active and inactive are the calls of the source. Cut-off read from the data, not from the text of the source: active = GI50 up to about 1.1 µM and inactive = higher.

CC1=CP(=O)(OC(C)C)CC(C)=C1Cl (centres undefined)    > 100 µM (inactive)
O=[N+]([O-])/C=C1\COCc2cc3c(cc21)OCO3    27.2 µM (inactive)
CC(C)(C)c1ccc(CN2CCN(C(c3ccccc3)c3ccc(Cl)cc3)CC2)cc1 (centres undefined)    36.6 µM (inactive)

Recorded GI50 of N#CC1C=Cc2ccccc2N1C(=O)Oc1ccccc1 (centres undefined) , please.
32.3 µM (inactive)

---

- Test system: SK-MEL-2
- ASSAY INFO: NCI tumour cell line growth inhibition, 48 h
Structures can show the parent of a compound that is named as a salt. Active and inactive are the calls of the source. No stated cut-off is given here; in the data, active = GI50 up to about 1.1 µM and inactive = higher.
Please reply with one of these outcomes: class 1 for active, class 0 for inactive

COC(=O)/C(C#N)=C1\NC(=O)CC(c2ccccc2)C1C#N (stereo unspecified)    class 0

Given CC(C)(C)c1ccc(O)c(C[N+](C)(C)C)c1 , state the outcome it received in this test.
class 0

Another molecule to look at: C=CCN(CC=C)CC(C(C)=O)C(c1ccccc1)c1c(O)c2ccccc2oc1=O (stereo unspecified)
class 0

Another molecule to look at: O=C1c2c(O)cccc2-c2nn(CCNCCO)c3ccc(NCCNCCO)c1c23 [LOSOXANTRONE HYDROCHLORIDE]
class 1

Another molecule to look at: CC(C)N(C(C)C)S(=O)(=O)CC12CCC(C/C1=N\O)C2 (stereo unspecified)
class 0

Another molecule to look at: Cc1ccc(NC(=O)/C(CC(=O)c2c[n+]([O-])c3ccccc3[n+]2[O-])=N\NC(=O)C[n+]2ccccc2)cc1
class 0

Another molecule to look at: COc1ccc(/C=N/Nc2nc3ccccc3c(=O)n2-c2ccccc2)cc1
class 0

---

Entries annotated with measured GI50
- System: NCI/ADR-RES
- ASSAY INFO: NCI tumour cell line growth inhibition, 48 h
Activity calls are given as the source filed them. Rule as the data show it: active = GI50 up to about 1.1 µM and inactive = higher.

Solved entries (count: 4):
COc1cc(C2C3=C(COC3=O)OC(C)(C)Oc3cc4c(cc32)OCO4)cc(OC)c1OC (centres undefined)    0.299 µM (active)
COc1cccc2c1NC(=O)Cc1c-2[nH]c2ccccc12    82.2 µM (inactive)
O=C1C=C(Nc2ccccc2C(=O)CC(=O)C(=O)Nc2cccc(C(F)(F)F)c2)c2ccccc2C1=O    13.5 µM (inactive)
Oc1ccc(O)c(CNc2ccccc2)c1    7.01 µM (inactive)

Recorded GI50 of [O-][Cl+3]([O-])([O-])O.c1ccc(C2=NN2c2ccccc2)cc1 , please.
> 100 µM (inactive)

Another molecule to look at: CCCCCCC(=O)OC[n+]1ccc(-c2c(COC(=O)NC(C)C)c(COC(=O)NC(C)C)c3n2CCC3)cc1
> 100 µM (inactive)

Another molecule to look at: CCOC(=O)[C@H](O)[C@@H](O)C(=O)NCc1ccc(C(=O)c2ccccc2)cc1
> 100 µM (inactive)

Another molecule to look at: CC1(C)S[C@@H]2[C@H](NC(=O)CCC[C@@H](N)C(=O)O)C(=O)N2[C@H]1C(=O)O
> 31.6 µM (inactive)

Another molecule to look at: C=CCOc1ccc(C2c3c(n[nH]c3O)CC(O)(OCC)C2C(=O)OCC)cc1OC (centres undefined)
> 100 µM (inactive)

---

- Tested on: NCI-H226
- ASSAY INFO: NCI tumour cell line growth inhibition, 48 h
Active and inactive are the calls of the source. Rule as the data show it: active = GI50 up to about 1.1 µM and inactive = higher.
METRIC NAME: GI50

Solved entries (count: 10):
CC1=CC=CC(C)(C)CC1(O[Si](C)(C)C)C(F)(F)F (stereo unspecified)    > 100 µM (inactive)
N#CI1OC(C(F)(F)F)(C(F)(F)F)c2ccccc21    17.8 µM (inactive)
CCOC1Oc2ccccc2-c2nc(N)ncc21 (stereo unspecified)    61.9 µM (inactive)
N=c1oc2cc(O)ccc2cc1C(=O)Nc1ccccn1    90.6 µM (inactive)
CCOC(=O)Nc1ccc(S(=O)(=O)OC)cc1.CCOC(=O)Nc1ccc(S(=O)(=O)OC)cc1.NC(=O)NCCO    > 50 µM (inactive)
CN1CCc2c(sc3nc(Nc4ccccc4)n(N)c(=O)c23)C1    > 100 µM (inactive)
CCCCCC(/C=N/Nc1ccccc1)C(O)(C(F)(F)F)C(F)(F)F (stereo unspecified)    > 100 µM (inactive)
COC(=O)[C@@H](N1C(=O)c2ccccc2C1=O)C1(C)CC(Cl)=NO1 (stereo partly specified)    38.8 µM (inactive)
CC1CC(C)(C)CC(OCCN2CCCCC2)(c2ccccc2)C1 (stereo unspecified)    20.7 µM (inactive)
CCOC(=O)[C@H](O)[C@@H](O)C(=O)NCc1ccc(C(=O)c2ccccc2)cc1    > 100 µM (inactive)

Item CN1C(=O)CCC2[C@@H]3CC=C4C[C@@H](O)CC[C@]4(C)C3CC[C@@]21C (stereo partly specified) with NCI-H226 - GI50?
> 100 µM (inactive)

Another compound to look at: O=C1CC(c2ccccc2Cl)Oc2ccccc21 (stereo unspecified)
3.84 µM (inactive)

Another compound to look at: Cc1nc(-n2nc(-c3ccccc3)cc2-c2ccccc2)sc1C(=O)/C=C/c1ccc(Cl)c(Cl)c1
15.3 µM (inactive)

Another compound to look at: CC(CO)CCNc1ncnc2c1ncn2CCC(=O)O (stereo unspecified)
> 100 µM (inactive)

---

- Test system: MOLT-4
- ASSAY INFO: NCI tumour cell line growth inhibition, 48 h
Activity calls are given as the source filed them. No stated cut-off is given here; in the data, active = GI50 up to about 1.1 µM and inactive = higher.
Entries annotated with measured GI50

Solved entries (count: 2):
COc1ccc(NC(=O)CSc2nnc(Cc3ccccc3)o2)cc1    > 100 µM (inactive)
COc1cc(/C=C2\CCC(C)C3=C2NC(=S)NC3c2cc(OC)c(OC)c(OC)c2)cc(OC)c1OC (stereo not given)    24 µM (inactive)

Recorded GI50 of CCOc1ccccc1NC(=O)CC1SC(Nc2ccc([N+](=O)[O-])cc2)=NC1=O (stereo not given) , please.
19 µM (inactive)

Another compound to look at: CCOC(=O)C1S/C(=N\c2ccc(C)c(C)c2)N=C1C (stereo not given)
> 100 µM (inactive)

Another compound to look at: COC(=O)C1(C)CC2C(C)(CCC3(C)C4=CC=C5C(=CC(=O)C(O)=C5C)C4(C)CCC23C)CC1O (stereo not given)
0.285 µM (active)

Another compound to look at: COc1cc(/C=N\O)nc(-c2ccccn2)c1
0.173 µM (active)

Another compound to look at: CCO/C=C1\SC(=S)N(c2ccc(OCC)cc2)C1=O
43.1 µM (inactive)

Another compound to look at: Nc1nc(N)c2nc(CNc3ccc(C(=O)O)cc3)[nH]c2n1
> 100 µM (inactive)

Another compound to look at: CCOc1ccccc1NC(=O)C1=C(C)NC(C)=C(C(=O)Nc2ccccc2OCC)C1c1ccc2c(c1)OCO2
12.1 µM (inactive)

Another compound to look at: Nc1nc(N)c2c(n1)NC(c1ccccc1)CC(/C=C/c1ccc(Cl)cc1)=N2 (stereo not given)
1.89 µM (inactive)

Data provenance is ChEMBL document CHEMBL1201862.
